Origin of the recorded values: BindingDB's records for doi:10.1016/j.bmcl.2012.08.020

# PROTOCOL_TEXT: Inhibition of ACK1 in mouse C8 cells assessed as decrease in cell viability after 20 to 24 hrs
OUTCOME_MEASURE: IC50 (nM)

1. CS(=O)(=O)c1ccc(-c2oc3ncnc(NC[C@@H]4CCCO4)c3c2-c2ccccc2)cc1; 250
2. c1ccc(-c2[nH]c3ncnc(NC[C@@H]4CCCO4)c3c2-c2ccccc2)cc1; 620
3. O=C(c1ccc(-c2oc3ncnc(NC[C@@H]4CCCO4)c3c2-c2ccccc2)cc1)N1CCOCC1; 190
4. CN(C)CCOc1ccc(-c2[nH]c3ncnc(NCC4SCCS4)c3c2-c2ccccc2)cc1; 5
5. c1ccc(-c2c(-c3ccc(OCCN4CCOCC4)cc3)[nH]c3ncnc(NC[C@@H]4CCCO4)c23)cc1; 80

* * *

# PROTOCOL_TEXT: Inhibition of ACK1 in mouse C8 cells assessed as decrease in cell viability after 20 to 24 hrs
pIC50: −log10 of the molar value.
Would you mind classing the entries by pIC50? Ranges: low bin (below 6), mid bin (6 to below 7), high bin (7 or more)

1) CN(C)CCOc1ccc(-c2oc3ncnc(NC[C@@H]4CCCO4)c3c2-c2ccccc2)cc1; high bin
2) CNS(=O)(=O)c1ccc(-c2oc3ncnc(NC[C@@H]4CCCO4)c3c2-c2ccccc2)cc1; mid bin
3) CNC(=O)c1ccc(-c2[nH]c3ncnc(NC[C@@H]4CCCO4)c3c2-c2ccccc2)cc1; high bin
4) CN(C)CCOc1ccc(-c2oc3ncnc(NCC4SCCS4)c3c2-c2ccccc2)cc1; high bin
5) CN(C)CCOc1ccc(-c2[nH]c3ncnc(NC[C@@H]4CCCO4)c3c2C2=CCCCC2)cc1; mid bin
6) CO[C@@H]1CC[C@H]1CNc1ncnc2[nH]c(-c3ccc(OCCN(C)C)cc3)c(-c3ccccc3)c12; mid bin
7) CN(C)C(=O)c1ccc(-c2oc3ncnc(NC[C@@H]4CCCO4)c3c2-c2ccccc2)cc1; mid bin
8) CN(C)C(=O)c1ccc(-c2[nH]c3ncnc(NC[C@@H]4CCCO4)c3c2-c2ccccc2)cc1; high bin
9) CNC(=O)c1ccc(-c2oc3ncnc(NC[C@@H]4CCCO4)c3c2-c2ccccc2)cc1; low bin
10) CNS(=O)(=O)c1ccc(-c2[nH]c3ncnc(NC[C@@H]4CCCO4)c3c2-c2ccccc2)cc1; high bin
11) CN(C)CCOc1ccc(-c2[nH]c3ncnc(NC[C@@H]4CCCO4)c3c2-c2ccccc2)cc1; high bin
12) O=C1CCCN1CCOc1ccc(-c2oc3ncnc(NC[C@@H]4CCCO4)c3c2-c2ccccc2)cc1; mid bin
13) CN(C)CCOc1ccc(-c2oc3ncnc(NCC4SCCCS4)c3c2-c2ccccc2)cc1; mid bin
14) CN(C)CCOc1ccc(-c2[nH]c3ncnc(NC[C@H]4CCC[C@H]4O)c3c2-c2ccccc2)cc1; mid bin
15) c1ccc(-c2c(-c3ccc(OCCN4CCCC4)cc3)[nH]c3ncnc(NC[C@@H]4CCCO4)c23)cc1; high bin
16) CN(C)CCOc1ccc(-c2oc3ncnc(NC[C@@H]4CCCCS4)c3c2-c2ccccc2)cc1; low bin
17) CN(C)CCOc1ccc(-c2oc3ncnc(NCC4OCCO4)c3c2-c2ccccc2)cc1; low bin
18) O=C(c1ccc(-c2[nH]c3ncnc(NC[C@@H]4CCCO4)c3c2-c2ccccc2)cc1)N1CCOCC1; high bin
19) CN(C)CCOc1ccc(-c2oc3ncnc(NCC4CCCS4)c3c2-c2ccccc2)cc1 (stereo not given); low bin
20) c1ccc(-c2c(-c3ccc(OCCN4CCCC4)cc3)[nH]c3ncnc(NCC4SCCS4)c23)cc1; high bin
21) c1ccc(-c2oc3nccc(NC[C@@H]4CCCO4)c3c2-c2ccccc2)cc1; low bin
22) O=C1CCCN1CCOc1ccc(-c2[nH]c3ncnc(NC[C@@H]4CCCO4)c3c2-c2ccccc2)cc1; high bin
23) COc1ccc(-c2oc3ncnc(NC[C@@H]4CCCO4)c3c2-c2ccccc2)cc1; mid bin
24) c1cncc(-c2c(-c3ccc(OCCN4CCCC4)cc3)[nH]c3ncnc(NC[C@@H]4CCCO4)c23)c1; mid bin
25) Fc1ccccc1-c1c(-c2ccc(OCCN3CCCC3)cc2)[nH]c2ncnc(NC[C@@H]3CCCO3)c12; high bin
26) CN(C)CCOc1ccc(-c2[nH]c3ncnc(NC[C@@H]4CC[C@H]4O)c3c2-c2ccccc2)cc1; mid bin
27) CN(C)CCOc1ccc(-c2[nH]c3ncnc(NC[C@@H]4CCCO4)c3c2C2=CCCC2)cc1; mid bin
28) COc1ccc(-c2[nH]c3ncnc(NC[C@@H]4CCCO4)c3c2-c2ccccc2)cc1; mid bin
